// Human HDAC11 (Homo sapiens (Human), UniProt Q96DB2) IC50 records

structure=O=C(NO)c1cccc(Cn2c(=O)n(CCc3ccccc3)c(=O)c3ccccc32)c1 measured_on="Human HDAC11 (Homo sapiens (Human), UniProt Q96DB2)" obs_value="> 10 µM"

Please provide the recorded IC50 for O=C(NO)c1ccc(Cn2c(=O)n(CCc3ccc(N4CCOCC4)cc3)c(=O)c3ccccc32)cc1 , tested on Human HDAC11 (Homo sapiens (Human), UniProt Q96DB2).
Sequence (Q96DB2 whole entry): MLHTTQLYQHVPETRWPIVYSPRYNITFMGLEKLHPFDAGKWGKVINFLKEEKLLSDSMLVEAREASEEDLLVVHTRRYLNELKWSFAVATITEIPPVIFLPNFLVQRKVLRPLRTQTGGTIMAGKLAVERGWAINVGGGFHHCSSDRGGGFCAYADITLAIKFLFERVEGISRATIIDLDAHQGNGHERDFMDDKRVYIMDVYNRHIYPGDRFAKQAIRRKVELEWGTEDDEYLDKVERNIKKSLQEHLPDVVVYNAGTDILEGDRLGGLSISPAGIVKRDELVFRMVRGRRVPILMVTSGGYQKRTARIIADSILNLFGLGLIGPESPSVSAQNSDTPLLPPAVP
22.8 µM

Query for Human HDAC11 (Homo sapiens (Human), UniProt Q96DB2): what IC50 does the record show for O=C(NO)c1ccc(Cn2c(=O)n(Cc3ccccc3)c(=O)c3ccccc32)cc1 ?
37.5 µM

Entry O=C(NO)c1ccc(Cn2c(=O)n(CCc3ccccc3)c(=O)c3ccc(O)cc32)cc1 , system Human HDAC11 (Homo sapiens (Human), UniProt Q96DB2): what IC50 was measured?
5.5 µM

Under Human HDAC11 (Homo sapiens (Human), UniProt Q96DB2): IC50 value of O=C(NO)c1ccc(Cn2c(=O)n(CCc3ccccc3)c(=O)c3ccc(C(F)(F)F)cc32)cc1 ?
7.39 µM

Form field: IC50 recorded for CNc1ccc(CCn2c(=O)c3ccccc3n(Cc3ccc(C(=O)NO)cc3)c2=O)cc1 with Human HDAC11 (Homo sapiens (Human), UniProt Q96DB2) (enter value)
3.8 µM

Provide value of IC50 for this record tested with Human HDAC11 (Homo sapiens (Human), UniProt Q96DB2): COc1ccccc1CCn1c(=O)c2ccccc2n(Cc2ccc(C(=O)NO)cc2)c1=O
34.4 µM

Provide the documented IC50 with Human HDAC11 (Homo sapiens (Human), UniProt Q96DB2) as the system for O=C(NO)c1ccc(Cn2c(=O)n(CCc3ccccc3O)c(=O)c3ccccc32)cc1
16.7 µM
